Tested on: human erythrocytes
Assay Summary: Haemolytic assay
Type: cell-based
Stated Conditions: peptoid 100 µM, 37 °C, 1 h, absorbance 450 nm; positive control 1% Triton x-100; n = 3 independent experiments, 3 replicates each
Non-standard residues stand in square brackets, D forms with d. Residues, ends and D or L forms follow the SMILES beside them. Gly(N-(CH2)6NH2) = NCCCCCCNCC(=O)O; Nphe = O=C(O)CNCc1ccccc1
Metric Name: Percentage lysis of human erythrocytes

{"Compound": "NCCCCCCNCC(=O)N(CC(=O)N(CC(=O)N(CCCCCCN)CC(=O)N(CC(=O)N(CC(=O)N(CCCCCCN)CC(=O)N(CC(=O)N(CC(N)=O)Cc1ccccc1)Cc1ccccc1)Cc1ccccc1)Cc1ccccc1)Cc1ccccc1)Cc1ccccc1 [Peptoid 7] (H-[Gly(N-(CH2)6NH2)][Nphe][Nphe][Gly(N-(CH2)6NH2)][Nphe][Nphe][Gly(N-(CH2)6NH2)][Nphe][Nphe]-NH2; N-terminus assumed)", "Metric Name": "Percentage lysis of human erythrocytes", "Readout Value": "less than 5%"}
{"Compound": "NCCCCCCNCC(=O)N(CC(=O)N(CC(=O)N(CCCCCCN)CC(=O)N(CC(=O)N(CC(=O)N(CCCCCCN)CC(=O)N(CC(=O)N(CC(=O)N(CCCCCCN)CC(=O)N(CC(=O)N(CC(N)=O)Cc1ccccc1)Cc1ccccc1)Cc1ccccc1)Cc1ccccc1)Cc1ccccc1)Cc1ccccc1)Cc1ccccc1)Cc1ccccc1 [Peptoid 6] (H-[Gly(N-(CH2)6NH2)][Nphe][Nphe][Gly(N-(CH2)6NH2)][Nphe][Nphe][Gly(N-(CH2)6NH2)][Nphe][Nphe][Gly(N-(CH2)6NH2)][Nphe][Nphe]-NH2; N-terminus assumed)", "Metric Name": "Percentage lysis of human erythrocytes", "Readout Value": "less than 5%"}

====

Tested on: human erythrocytes
Assay Summary: Haemolytic assay
Assay type: cell-based
Stated Conditions: peptoid 100 µM, 37 °C, 1 h, absorbance 450 nm; positive control 1% Triton x-100; n = 3 independent experiments, 3 replicates each
Non-standard residues stand in square brackets, D forms with d. Residues, ends and D or L forms follow the SMILES beside them. Gly(N-2-aminoethyl) = NCCNCC(=O)O; Nphe = O=C(O)CNCc1ccccc1; Nlys = NCCCCNCC(=O)O

{"Compound": "NCCCCNCC(=O)N(CC(=O)N(CC(=O)N(CCCCN)CC(=O)N(CC(=O)N(CC(=O)N(CCCCN)CC(=O)N(CC(=O)N(CC(=O)N(CCCCN)CC(=O)N(CC(=O)N(CC(N)=O)Cc1ccccc1)Cc1ccccc1)Cc1ccccc1)Cc1ccccc1)Cc1ccccc1)Cc1ccccc1)Cc1ccccc1)Cc1ccccc1 [Peptoid 1] (H-[Nlys][Nphe][Nphe][Nlys][Nphe][Nphe][Nlys][Nphe][Nphe][Nlys][Nphe][Nphe]-NH2; N-terminus assumed)", "Study Target": "human erythrocytes", "Percentage lysis of human erythrocytes": "≥ 10%"}
{"Compound": "NCCNCC(=O)N(CC(=O)N(CC(=O)N(CCN)CC(=O)N(CC(=O)N(CC(=O)N(CCN)CC(=O)N(CC(=O)N(CC(=O)N(CCN)CC(=O)N(CC(=O)N(CC(N)=O)Cc1ccccc1)Cc1ccccc1)Cc1ccccc1)Cc1ccccc1)Cc1ccccc1)Cc1ccccc1)Cc1ccccc1)Cc1ccccc1 [Peptoid 4, (NaeNpheNphe)4-NH2] (H-[Gly(N-2-aminoethyl)][Nphe][Nphe][Gly(N-2-aminoethyl)][Nphe][Nphe][Gly(N-2-aminoethyl)][Nphe][Nphe][Gly(N-2-aminoethyl)][Nphe][Nphe]-NH2; N-terminus assumed)", "Study Target": "human erythrocytes", "Percentage lysis of human erythrocytes": "≥ 10%"}
